measurement protocol: inhibition of RSV-induced cytopathic effect – HEp-2 cells, primary 10 µM value included (AID 2391)
conditions used: at 10 µM, active compounds read high
Screen size: about 310,000 compounds; about 410 (0.13%) were called active. Roughly 2% stayed inconclusive and do not appear here. These entries were drawn from the full list. Measured potencies and affinities stand elsewhere.
Could you label it Criterion met if measured CPE inhibition is 3% or higher, and Criterion not met otherwise?

CCCCNC(=O)CC1N=C2c3ccccc3N=C(SCC(=O)Nc3cccc(OC)c3)N2C1=O (stereo not given)    Criterion not met
Cc1cccc2nc(Cn3c(=O)n(CCC(=O)NCc4ccco4)c(=O)c4sccc43)cc(=O)n12    Criterion met
COc1ccccc1NC(=O)c1sc2ncn(Cc3cccc4ccccc34)c(=O)c2c1C    Criterion not met
c1ccc2[nH]cnc2c1    Criterion met

Turning to the following compound.
-- ask Assess whether reported CPE inhibition for `CC(=O)c1c(C)[nH]c(C(=O)OCC(=O)Nc2cccc(S(=O)(=O)N(C)C)c2)c1C` sits at 3% or higher.
-- reply Criterion met

* * *

Catalogue of compounds with associated CPE inhibition
measurement protocol: inhibition of RSV-induced cytopathic effect – HEp-2 cells, primary 10 µM value included (AID 2391)
conditions used: at 10 µM, active compounds read high
In all, about 310,000 compounds went through this assay and about 410 (0.13%) were called active. About 2% were inconclusive and are not listed. Not all results are given here. Measured potencies and affinities stand elsewhere.
Number in %, nothing else.

Some compounds with known CPE inhibition results, for comparison:
Cc1cc(NC(=O)CCC(=O)N(Cc2ccco2)C2(C(=O)NC3CCCC3)CCCCC2C)no1 (configuration not stated)    2.17
O=C(Nc1ccc2c(c1)CCC2)C1CCCN(c2ncccn2)C1 (configuration not stated)    -1.9
CCn1c(SC)nnc1-c1nnc(SC)n1CC    3.28
Cc1ccc(CC(=O)NCC2CCCCC2)cc1    0.51
O=C(NCc1ccccc1)c1ccc[n+]([O-])c1    0.02

-- ask Give its CPE inhibition value. Item: `CN(C)C(=O)COC(=O)c1ccccc1OCC(=O)Nc1ccc(SC(F)F)cc1`
-- reply 0.56

-- ask Now the compound `COc1ccc(C(=O)NCc2nnc(SCC(=O)Nc3cc(C)on3)o2)cc1OC`
-- reply 0.22

-- ask Proceed to `CC(=O)CC(C)(C)n1nnc(-c2ccccc2)n1`
-- reply 1.03

-- ask Input `Cc1ccc([N+](=O)[O-])cc1S(=O)(=O)Nc1cccc(-c2ccc(N3CCOCC3)nn2)c1`
-- reply 30.8

-- ask Queued: `CC(C)(C)NC(=O)COC(=O)c1ccccc1Nc1ccc(SC(F)F)cc1`
-- reply 20.3

-- ask Try this compound too: `COc1ccc2c(c1)Cc1sc(NC(=O)c3cccs3)nc1-2`
-- reply 7.1

-- ask Same question for `O=S(=O)(Nc1ccc(-c2ccc(N3CCOCC3)nn2)cc1)c1cc(Cl)ccc1Cl` please.
-- reply 1.29

-- ask // next record `O=[N+]([O-])c1ccc(Cl)c(S(=O)(=O)Nc2ccc(-c3ccc(N4CCOCC4)nn3)cc2)c1`
-- reply 0.86

-- ask Param item: `C(=N\Nc1nc(Nc2ccccc2)nc(N2CCOCC2)n1)/c1c[nH]c2ccccc12`
-- reply 38.2

-- ask One more compound: `COc1ccc(-c2noc(CN3CCN(c4ccccc4)CC3)n2)cc1`
-- reply -0.23

-- ask Item: `COC(=O)Cc1ccc(NC(=S)N2CCN(c3ccc(OC)cc3)CC2)cc1`
-- reply 13.6

-- ask And for `Cc1cc(Cl)cc(C)c1OCCCCn1ccnc1` ?
-- reply 0.28

-- ask Note, next up: `Cc1cccc(C(=O)NC2CCN(CC(=O)N3CCOCC3)CC2)c1`
-- reply 0.56

-- ask Field entry: O=C(Nc1ccc(F)cc1F)N1CCCC(c2nc(-c3ccc(F)cc3)no2)C1 (configuration not stated)
-- reply 14.7

-- ask # iterate: `CC(C)COc1ccc(C(=O)NNC(=O)c2ccc(=O)[nH]c2)cc1`
-- reply 0.85

-- ask Note, next up: O=C1CC(SC(=NCc2ccc3c(c2)OCO3)Nc2ccccc2)C(=O)N1c1ccccc1 (configuration not stated)
-- reply 3.83

-- ask Now consider `CCCCn1c(N)c(N(CC(C)C)C(=O)c2c(CC)noc2C)c(=O)[nH]c1=O` .
-- reply -1.37

* * *

Below, each entry is listed with its recorded CPE inhibition.
measurement protocol: inhibition of RSV-induced cytopathic effect – HEp-2 cells, primary 10 µM value included (AID 2391)
conditions used: at 10 µM, active compounds read high
About 410 (0.13%) of roughly 310,000 compounds were called active. About 2% were inconclusive and are not listed. These entries were drawn from the full list. Results with a measured potency or affinity are listed apart.
The reply should be a number in %, with the unit left off.

Illustrative cases are given below, each with its answer.
CCS(=O)(=O)N1CCN(c2ccccn2)CC1    -0.21
Cc1cc(C)c(NC(=O)CSc2nc3ccccc3c(=O)n2CCCN2CCOCC2)c(C)c1    -0.42
CCn1nnnc1-c1ccc(OC)c(S(=O)(=O)Nc2ccc(C(=O)OC)cc2)c1    1.29
COc1ccc(CNC(=O)C(C)Sc2nc3ccccc3c(=O)n2CCCN2CCOCC2)cc1 (stereo unspecified)    -1.12
CC(Nc1ccc2c(c1)OCCO2)C(=O)N1CCc2ccccc21 (stereo unspecified)    3.03

Now consider the entry below.
-- ask # get_value(readout='CPE inhibition', item= `Cc1ccc(S(=O)(=O)NNC(=O)Nc2ccc(C)c(C)c2)c(C)c1` )
-- reply 1.56

* * *

measurement protocol: inhibition of RSV-induced cytopathic effect – HEp-2 cells, primary 10 µM value included (AID 2391)
conditions used: at 10 µM, active compounds read high
Among all 310,000 compounds or so, about 410 (0.13%) were called active. Not shown: some 2% with an inconclusive outcome. Not all results are given here. Results with a measured potency or affinity are listed apart.
assay readout: CPE inhibition (%)
Give the quantity in %, number only.

COc1ccc2cc(CN(CCCN3CCOCC3)Cc3nnnn3C3CCCC3)c(=O)[nH]c2c1    -0.3
COc1ccc(-n2nc(C(=O)NCC(=O)N3CCCC(C)C3)c3ccccc3c2=O)cc1 (centres undefined)    2.49
Cc1c(C(=O)N2CCC(C)CC2)sc2ncn(CC(=O)N3CCC(C)CC3)c(=O)c12    3.53
CCOc1ccc(C2c3[nH]c4ccccc4c3CCN2Cc2cccn2-c2ncccn2)cc1 (centres undefined)    43.1
Cc1ccc(OCCNC(=O)CCc2ccccc2)cc1C    -0.93

-- ask Could you share which CPE inhibition value was measured for `Cc1ccc(Nc2c([N+](=O)[O-])cc(C(=O)N3CC(=O)Nc4ccccc43)cc2[N+](=O)[O-])c(C)c1` ?
-- reply -0.4

-- ask And `CCCN(Cc1nnc(-c2ccccc2Cl)o1)C(=O)c1oc2ccccc2c1C` ?
-- reply 44

-- ask Now give it for `Cc1ccc2oc(C(=O)Nc3ccc(S(=O)(=O)Nc4onc(C)c4C)cc3)cc(=O)c2c1` too.
-- reply 1.61

-- ask And what about the molecule `Cc1ccc2oc(C(=O)Nc3ccc(S(=O)(=O)Nc4ncccn4)cc3)c(C)c2c1` ?
-- reply 1.95

* * *

Entries annotated with measured CPE inhibition
measurement protocol: inhibition of RSV-induced cytopathic effect – HEp-2 cells, primary 10 µM value included (AID 2391)
conditions used: at 10 µM, active compounds read high
Hit rate of the full screen: of about 310,000 compounds, about 410 (0.13%) were called active. Not shown: some 2% with an inconclusive outcome. Not all results are given here. Entries with a potency or affinity are not part of this list.
Record the value in %, omitting the unit from your answer.

Here are 3 compounds together with their reported answers.
Nc1ccc(C(=O)OCc2nc3ccccc3[nH]2)cc1    1.24
COc1ccc(CNC(=O)c2coc(=O)c3ccccc23)cc1    5.17
CCn1ncc(/C=C/C(=O)Nc2c(C)nn(Cc3ccc(Cl)cc3Cl)c2C)c1C    0.17

-- ask Please report the recorded CPE inhibition for `CCc1cc(=O)oc2cc(OC(C)=O)cc(OC(C)=O)c12` .
-- reply 5.44

-- ask // same read-out, input: `COc1cc(OC)cc(-c2nnc(SCc3c(F)cccc3Cl)o2)c1`
-- reply 9.5

-- ask Can you check Cc1ccc(CS(=O)Cc2ccc(C(=O)NCC(C)c3ccccc3)o2)cc1 (stereo unspecified) next?
-- reply 1.69

-- ask Field entry: `COc1cc(-c2nnc(SCc3ccccc3Cl)o2)cc(OC)c1OC`
-- reply 10.5

-- ask And what about the compound `COc1cc(OC)c2c(C)cc(=O)oc2c1` ?
-- reply 0.35

-- ask Next: `Cc1ccc2nc(Cc3ccc(N)cc3)[nH]c2c1`
-- reply -0.3

-- ask Do the same for `COC(=O)COc1ccc(S(=O)(=O)NCc2ccc3c(c2)OCO3)cc1C` please
-- reply 1.14

-- ask Ok, now COC(=O)C1=C(N)Oc2cc(C)n(Cc3ccccc3)c(=O)c2C1c1ccccc1 (stereo unspecified)
-- reply 3.61
